protocol: Selectivity index, ratio of IC50 for cytotoxicity against mouse bone marrow derived macrophages to MIC for antimycobacterial activity against Mycobacterium tuberculosis H37Rv ATCC 27294
Type: toxicity
measurementContext: read-out: Selectivity Index
*1 amine or outer side, *2 acyl side, *3 side chain or, on linkers, in order; H or OH if unused. Where a SMILES comes first, the peptide text is derived from it. [ ]: non-standard residue; d: D form. The star is where a group is joined. X1 = C/C(=N\OCC(=O)[*:2])c1ccc(N[*:1])cc1; Benzoyl(5-Br-2-OH) = O=C(c1cc(Br)ccc1O)*
# selectivity ratio per entry

| compound | selectivity ratio |
| --- | --- |
| CC(=O)c1ccc(NC(=O)c2cc(Br)ccc2O)cc1 | 10.2 |

Please turn your attention to the following entry.
The compound listed as C/C(=N\OCC(=O)N[C@H](C(=O)N[C@@H](CCCCN)C(=O)N1CCC[C@H]1C(=O)N[C@@H](CCCCN)C(=O)NCC(N)=O)[C@@H](C)O)c1ccc(NC(=O)c2cc(Br)ccc2O)cc1 ({Benzoyl(5-Br-2-OH)}-[X1]TKPKG-NH2) has a reported selectivity ratio of 4.6

---

protocol: Cytotoxicity against mouse bone marrow derived macrophages assessed as reduction in cell viability incubated for 48 hrs by MTT assay
Assay type: toxicity, cell-based, Macrophage
*1 amine or outer side, *2 acyl side, *3 side chain or, on linkers, in order; H or OH if unused. Where a SMILES comes first, the peptide text is derived from it. [ ]: non-standard residue; d: D form. The star is where a group is joined. X1 = C/C(=N\OCC(=O)[*:2])c1ccc(N[*:1])cc1; Benzoyl(5-Br-2-OH) = O=C(c1cc(Br)ccc1O)*
valueKind: IC50 at 48 h

| compound | IC50 at 48 h |
| --- | --- |
| C/C(=N\OCC(=O)N[C@H](C(=O)N[C@@H](CCCCN)C(=O)N1CCC[C@H]1C(=O)N[C@@H](CCCCN)C(=O)NCC(N)=O)[C@@H](C)O)c1ccc(NC(=O)c2cc(Br)ccc2O)cc1 ({Benzoyl(5-Br-2-OH)}-[X1]TKPKG-NH2) | > 100 µM |

The compound listed as `CC(=O)c1ccc(NC(=O)c2cc(Br)ccc2O)cc1` has a reported IC50 at 48 h of 76.5 µM

---

protocol: Selectivity index, ratio of IC50 for cytostatic activity against human HepG2 cells to MIC for antimycobacterial activity against Mycobacterium tuberculosis H37Rv ATCC 27294
Assay type: toxicity, cell-based
measurementContext: read-out: Selectivity Index
*1 amine or outer side, *2 acyl side, *3 side chain or, on linkers, in order; H or OH if unused. Where a SMILES comes first, the peptide text is derived from it. [ ]: non-standard residue; d: D form. The star is where a group is joined. X2 = C/C(=N\OCC(=O)*)c1ccc(NC(=O)c2cc(Br)ccc2O)cc1; X1 = C/C(=N\OCC(=O)[*:2])c1ccc(N[*:1])cc1; Benzoyl(5-Br-2-OH) = O=C(c1cc(Br)ccc1O)*; Decanoyl = CCCCCCCCCC(=O)*
Lab note: compare selectivity ratio with 4, writing Yes if less and No if equal or more.

Please let me know if CCCCCCCCCC(=O)NCCCC[C@H](NC(=O)[C@@H]1CCCN1C(=O)[C@H](CCCCN)NC(=O)[C@@H](NC(=O)CO/N=C(\C)c1ccc(NC(=O)c2cc(Br)ccc2O)cc1)[C@@H](C)O)C(=O)NCC(N)=O ({Benzoyl(5-Br-2-OH)}-[X1]TKPK(Decanoyl)G-NH2) shows selectivity ratio below 4. Yes

Please let me know if `C/C(=N\OCC(=O)NCC(=O)N[C@@H](Cc1ccccc1)C(=O)N[C@@H](CC(C)C)C(=O)NCC(=O)N[C@H](C(=O)N[C@@H](CCCCN)C(=O)N1CCC[C@H]1C(=O)N1CCC[C@H]1C(=O)N[C@@H](CCCNC(=N)N)C(=O)O)[C@@H](C)O)c1ccc(NC(=O)c2cc(Br)ccc2O)cc1` shows selectivity ratio below 4. No

Please let me know if `CC(=O)c1ccc(NC(=O)c2cc(Br)ccc2O)cc1` shows selectivity ratio below 4. Yes

Please let me know if C/C(=N\OCC(=O)NCC(=O)N[C@@H](Cc1ccccc1)C(=O)N[C@@H](CC(C)C)C(=O)NCC(=O)N[C@H](C(=O)N[C@@H](CCCCN)C(=O)N1CCC[C@H]1C(=O)N[C@@H](CCCCN)C(=O)NCC(N)=O)[C@@H](C)O)c1ccc(NC(=O)c2cc(Br)ccc2O)cc1 ({Benzoyl(5-Br-2-OH)}-[X1]GFLGTKPKG-NH2) shows selectivity ratio below 4. No

Please let me know if C/C(=N\OCC(=O)N[C@H](C(=O)N[C@@H](CCCCN)C(=O)N1CCC[C@H]1C(=O)N[C@@H](CCCCN)C(=O)NCC(N)=O)[C@@H](C)O)c1ccc(NC(=O)c2cc(Br)ccc2O)cc1 ({Benzoyl(5-Br-2-OH)}-[X1]TKPKG-NH2) shows selectivity ratio below 4. No

Please let me know if C/C(=N\OCC(=O)N[C@H](C(=O)N[C@@H](CCCCN)C(=O)N1CCC[C@H]1C(=O)N[C@@H](CCCNC(=N)N)C(=O)O)[C@@H](C)O)c1ccc(NC(=O)c2cc(Br)ccc2O)cc1 ({Benzoyl(5-Br-2-OH)}-[X1]TKPR-OH) shows selectivity ratio below 4. No

Please let me know if C/C(=N\OCC(=O)NCCCC[C@H](NC(=O)[C@@H]1CCCN1C(=O)[C@H](CCCCN)NC(=O)[C@@H](NC(=O)CNC(=O)[C@H](CCCCNC(=O)CO/N=C(\C)c1ccc(NC(=O)c2cc(Br)ccc2O)cc1)NC(=O)[C@@H]1CCCN1C(=O)[C@H](CCCCN)NC(=O)[C@@H](NC(=O)[C@H](CCCNC(=N)N)NC(=O)[C@@H]1CCCN1C(=O)[C@H](CCCCN)NC(=O)[C@@H](N)[C@@H](C)O)[C@@H](C)O)[C@@H](C)O)C(=O)NCC(=O)O)c1ccc(NC(=O)c2cc(Br)ccc2O)cc1 (H-TKPRTKPK(X2)GTKPK(X2)G-OH) shows selectivity ratio below 4. Yes

Where do the numbers come from? From ChEMBL document CHEMBL5252539.
